Target: GPR40 (Homo sapiens, UniProt O14842)
Sequence (O14842 whole entry): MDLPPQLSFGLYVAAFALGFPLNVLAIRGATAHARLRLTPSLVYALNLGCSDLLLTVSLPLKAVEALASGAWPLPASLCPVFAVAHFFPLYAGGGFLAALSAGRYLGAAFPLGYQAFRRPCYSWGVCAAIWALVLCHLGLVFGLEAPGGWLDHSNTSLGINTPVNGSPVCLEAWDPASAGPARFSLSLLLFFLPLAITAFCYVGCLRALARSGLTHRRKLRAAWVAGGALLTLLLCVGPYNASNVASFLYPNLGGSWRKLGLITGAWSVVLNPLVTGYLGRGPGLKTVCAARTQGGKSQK
Assay: Inositol phosphate accumulation assay (A9_GPR40 cells)
Type: cell-based
Design: expressed in transfected cells; host or cells: CHO cells stably transfected with GPR40 and aequorin
Conditions: inositol phosphate assay, A9_GPR40 cells, 1 hour; read-out: IP3 EC50
endpoint label: EC50

Look over these answered cases.
# compound, experimental system, EC50
measured = [
    ("COc1ccc(F)c(-c2ccc(COc3cccc([C@@H](CC(=O)O)CC4CC4)c3)cc2C(O)C(C)(C)C)c1 (single isomer, unassigned)", "GPR40 (Homo sapiens, UniProt O14842)", "100 to 1000 nM"),
    ("COc1ccc(F)c(-c2ccc(COc3cccc(C(C)(CC(=O)O)C4CC4)c3)cc2[C@H]2CCCC2(C)C)c1 (single isomer, unassigned)", "GPR40 (Homo sapiens, UniProt O14842)", "10 to 100 nM"),
    ("COc1ccc(F)c(-c2ccc(COc3cccc(C(CC(=O)O)CC4CC4)c3)cc2C2CCCCCCC2)c1 (single isomer, unassigned)", "GPR40 (Homo sapiens, UniProt O14842)", "< 10 nM"),
    ("CCC[C@H](CC(=O)O)c1cccc(OCc2ccc(-c3cc(OC)ccc3F)c(N3CCCCC3)c2)c1 (single isomer, unassigned)", "GPR40 (Homo sapiens, UniProt O14842)", "10 to 100 nM"),
    ("CCC(C)(C)[C@H](OC)c1cc(COc2cccc([C@@H](CC(=O)O)C3CC3)c2)ccc1-c1cc(OC)ccc1F (single isomer, unassigned)", "GPR40 (Homo sapiens, UniProt O14842)", "< 10 nM"),
    ("COc1ccc(F)c(-c2ccc(COc3cccc([C@@H](CC(=O)O)C4CCC4)c3)cc2[C@@H]2CCCC2(C)C)c1 (single isomer, unassigned)", "GPR40 (Homo sapiens, UniProt O14842)", "< 10 nM"),
    ("COCC(C)(C)C(OC)c1cc(COc2cccc(C(CC(=O)O)C3CC3)c2)ccc1-c1cc(OC)ccc1F (single isomer, unassigned)", "GPR40 (Homo sapiens, UniProt O14842)", "10 to 100 nM"),
    ("CCC(CC(=O)O)c1cc(F)cc(OCc2ccc(-c3cc(OC)ncc3F)c(C3CCCC3(C)C)c2)c1F (single isomer, unassigned)", "GPR40 (Homo sapiens, UniProt O14842)", "< 10 nM"),
    ("CCCCC(CC(=O)O)c1cccc(OCc2ccc(-c3cc(OC)ccc3F)c(C3=CCCC3(C)C)c2)c1 (single isomer, unassigned)", "GPR40 (Homo sapiens, UniProt O14842)", "10 to 100 nM"),
    ("CC[C@H](CC(=O)O)c1cccc(OCc2ccc(-c3cc(OC)ccc3F)c([C@H]3CCCC3(C)C)c2)c1 (single isomer, unassigned)", "GPR40 (Homo sapiens, UniProt O14842)", "< 10 nM"),
]

What value of EC50 has been reported for the following compound? COc1ccc(F)c(-c2ccc(COc3cccc([C@@H](CC(=O)O)CC4CC4)c3)cc2C(OC)C(C)(C)C)c1 (single isomer, unassigned)
< 10 nM

What value of EC50 has been reported for the following compound? COc1cccc(-c2ccc(COc3cccc([C@H](C)CC(=O)O)c3)cc2C(C)(C)C)c1 (single isomer, unassigned)
100 to 1000 nM
